# credit: patent US8748430B2

Target: human orexin-2 (hOX2) receptor (Homo sapiens)
Construct: expressed in transfected cells
Test: Intracellular Ca2+ mobilization assay (FLIPR), antagonism of orexin-A at EC80
Type: cell-based
Conditions: CHO(dHFr-) cells stably expressing hOX2; orexin-A at EC80 as agonist; antagonist applied 25 min before; Kb=IC50/(1+[A]/EC50); read-out: Kb (μM) OX2R (human)
Consider the following compounds; for each one, report its Kb.
Please state the value followed by its unit.

Give its Kb value. Item: O=C(c1cnoc1-c1ccccc1)N1CC[C@@H](CNc2nc3ccc(F)cc3s2)C1 [Example 8]
0.0829 µM

Give its Kb value. Item: COc1cccc(OC)c1C(=O)N1CC[C@@H](CNc2nc3ccc(Cl)cc3o2)C1 [Example 2]
0.0573 µM

Give its Kb value. Item: O=C(c1ccccc1OC(F)(F)C(F)F)N1CC[C@@H](CNc2nc3ccc(Cl)cc3o2)C1 [Example 13]
0.149 µM

Give its Kb value. Item: Cc1ccc(C(F)(F)F)c(C(=O)N2CC[C@@H](CNc3nc4ccc(Cl)cc4o3)C2)c1 [Example 14]
0.304 µM

Give its Kb value. Item: O=C(c1ccccc1OC(F)(F)C(F)F)N1CC[C@@H](CNc2cnc3cc(Cl)ccc3n2)C1 [Example 27]
0.0839 µM

Give its Kb value. Item: Cc1ccc(Cl)c(C(=O)N2CC[C@@H](CNc3nc4cccc(F)c4o3)C2)c1 [Example 24]
0.754 µM

Give its Kb value. Item: Cc1ccc(Cl)c(C(=O)N2CC[C@@H](CNc3nc4ccc(Cl)cc4o3)C2)c1 [Example 17]
0.565 µM

Give its Kb value. Item: O=C(c1cnoc1-c1ccccc1)N1CC[C@@H](CNc2nc3ccc(Cl)cc3o2)C1 [Example 16]
0.147 µM

Give its Kb value. Item: O=C(c1ccccc1OC(F)(F)C(F)F)N1CC[C@@H](CNc2nc3ccc(F)cc3s2)C1 [Example 5]
0.0318 µM

Give its Kb value. Item: O=C(c1ccccc1OC(F)(F)F)N1CC[C@@H](CNc2nc3ccc(Cl)cc3o2)C1 [Example 12]
0.214 µM

Give its Kb value. Item: Cc1onc(-c2ccccc2)c1C(=O)N1CC[C@@H](CNc2nc3cccc(F)c3o2)C1 [Example 22]
0.0566 µM

Give its Kb value. Item: Cc1ccc(Cl)c(C(=O)N2CC[C@@H](CNc3cnc4cc(Cl)ccc4n3)C2)c1 [Example 31]
0.539 µM

Give its Kb value. Item: Cc1onc(-c2ccccc2)c1C(=O)N1CC[C@@H](CNc2nc3ccc(F)cc3s2)C1 [Example 7]
0.0623 µM

Give its Kb value. Item: Cc1ccc(Cl)c(C(=O)N2CC[C@@H](CNc3nc4ccc(F)cc4s3)C2)c1 [Example 9]
0.337 µM

Give its Kb value. Item: COc1ccc(C)cc1C(=O)N1CC[C@@H](CNc2cnc3cc(Cl)ccc3n2)C1 [Example 32]
0.185 µM

====

Molecular target: human orexin-2 (hOX2) receptor (Homo sapiens, UniProt O43614)
Construct: expressed in transfected cells
Sequence (O43614 whole entry): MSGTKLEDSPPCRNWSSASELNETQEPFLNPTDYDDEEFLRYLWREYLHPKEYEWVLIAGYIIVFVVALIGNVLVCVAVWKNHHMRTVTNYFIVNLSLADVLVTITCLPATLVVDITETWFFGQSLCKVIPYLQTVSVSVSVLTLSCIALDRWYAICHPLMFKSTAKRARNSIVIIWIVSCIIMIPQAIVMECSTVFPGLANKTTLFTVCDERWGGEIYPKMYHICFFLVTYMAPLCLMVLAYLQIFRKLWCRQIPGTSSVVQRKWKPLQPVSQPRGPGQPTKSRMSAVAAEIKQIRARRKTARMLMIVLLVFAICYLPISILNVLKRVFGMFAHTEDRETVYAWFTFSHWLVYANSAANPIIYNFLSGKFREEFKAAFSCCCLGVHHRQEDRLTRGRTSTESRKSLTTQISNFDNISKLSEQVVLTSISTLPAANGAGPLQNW
Test: Intracellular Ca2+ mobilization assay (FLIPR), antagonism of orexin-A at EC80
Format: cell-based
Settings: CHO(dHFr-) cells stably expressing hOX2; orexin-A at EC80 as agonist; antagonist applied 25 min before; Kb=IC50/(1+[A]/EC50); read-out: Kb (μM) OX2R (human)
Hi all, reminder that labels come from Kb, split as bucket 1 = under 0.1 µM, bucket 2 = from 0.1 µM up to 0.4 µM, bucket 3 = 0.4 µM and over

Which class is correct for the following compound? O=C(c1ccccc1C(F)(F)F)N1CC[C@@H](CNc2nc3ccc(F)cc3s2)C1 [Example 3]
bucket 2

Which class is correct for the following compound? Cc1ccc(C(F)(F)F)c(C(=O)N2CC[C@@H](CNc3cnc4cc(Cl)ccc4n3)C2)c1 [Example 28]
bucket 2

Which class is correct for the following compound? O=C(c1ccccc1OC(F)(F)F)N1CC[C@@H](CNc2nc3ccc(F)cc3s2)C1 [Example 4]
bucket 2

Which class is correct for the following compound? O=C(c1cnoc1-c1ccccc1)N1CC[C@@H](CNc2nc3cccc(F)c3o2)C1 [Example 23]
bucket 2

Which class is correct for the following compound? COc1cccc(OC)c1C(=O)N1CCC(CNc2nc3ccc(Cl)cc3o2)C1 (centres unmarked) [Example 1]
bucket 1

Which class is correct for the following compound? COc1ccc(C)cc1C(=O)N1CC[C@@H](CNc2nc3ccc(F)cc3s2)C1 [Example 10]
bucket 2

Which class is correct for the following compound? Cc1ccc(C(F)(F)F)c(C(=O)N2CC[C@@H](CNc3nc4ccc(F)cc4s3)C2)c1 [Example 6]
bucket 2

Which class is correct for the following compound? COc1ccc(C)cc1C(=O)N1CC[C@@H](CNc2nc3cccc(F)c3o2)C1 [Example 25]
bucket 3

Which class is correct for the following compound? COc1ccc(C)cc1C(=O)N1CC[C@@H](CNc2nc3ccc(Cl)cc3o2)C1 [Example 18]
bucket 2

Which class is correct for the following compound? O=C(c1ccccc1OC(F)(F)C(F)F)N1CC[C@@H](CNc2nc3cccc(F)c3o2)C1 [Example 20]
bucket 1

Which class is correct for the following compound? O=C(c1ccccc1C(F)(F)F)N1CC[C@@H](CNc2nc3ccc(Cl)cc3o2)C1 [Example 11]
bucket 3

Which class is correct for the following compound? O=C(c1cnoc1-c1ccccc1)N1CC[C@@H](CNc2cnc3cc(Cl)ccc3n2)C1 [Example 30]
bucket 2

Which class is correct for the following compound? O=C(c1ccccc1OC(F)(F)F)N1CC[C@@H](CNc2cnc3cc(Cl)ccc3n2)C1 [Example 26]
bucket 2

Which class is correct for the following compound? Cc1onc(-c2ccccc2)c1C(=O)N1CC[C@@H](CNc2nc3ccc(Cl)cc3o2)C1 [Example 15]
bucket 1

Which class is correct for the following compound? O=C(c1ccccc1OC(F)(F)F)N1CC[C@@H](CNc2nc3cccc(F)c3o2)C1 [Example 19]
bucket 3
